- measurement target: HDAC1 (Homo sapiens)
- Construct: purchased Enzo Life Sciences
- Sequence (Q13547 whole entry): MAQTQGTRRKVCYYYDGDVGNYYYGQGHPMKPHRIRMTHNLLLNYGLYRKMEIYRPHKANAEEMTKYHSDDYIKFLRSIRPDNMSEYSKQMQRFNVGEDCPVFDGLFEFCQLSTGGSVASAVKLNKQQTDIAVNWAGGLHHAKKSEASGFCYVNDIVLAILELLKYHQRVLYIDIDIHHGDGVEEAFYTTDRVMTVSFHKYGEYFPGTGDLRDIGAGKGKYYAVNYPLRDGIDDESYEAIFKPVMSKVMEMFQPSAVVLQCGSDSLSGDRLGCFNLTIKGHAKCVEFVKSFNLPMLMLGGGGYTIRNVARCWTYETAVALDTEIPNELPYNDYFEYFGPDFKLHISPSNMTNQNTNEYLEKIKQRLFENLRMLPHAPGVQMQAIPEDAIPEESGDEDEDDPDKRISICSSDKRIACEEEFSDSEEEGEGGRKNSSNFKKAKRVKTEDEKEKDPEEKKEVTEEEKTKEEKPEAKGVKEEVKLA
- assay protocol: HDAC Inhibition Screening Assay (FLUOR DE LYS Fluorimetric Drug Discovery Kit), HDAC1
- Format: biochemical
- measurement context: 50 μM compound
Below, each entry is listed with its recorded inhibition at 50 µM.

Solved cases below.
CN(C(=O)OCc1cc(C(F)(F)F)cc(C(F)(F)F)c1)C1CCc2ccc(/C=C/C(=O)NO)cc21 (stereo not drawn); > 80%
Nc1cc(F)ccc1NC(=O)CCCCCNC(=O)c1ccc2c(c1)CC/C(=C\c1cc(C(F)(F)F)cc(C(F)(F)F)c1)C2=O; < 50%
O=C(/C=C/c1ccc(CNC(=O)COc2ccc3c(c2)CC/C(=C\c2cc(C(F)(F)F)cc(C(F)(F)F)c2)C3=O)cc1)NO; 50 to 80%
O=C(CCCCCCC(=O)NC1CCc2cc(Br)ccc21)NO (stereo not drawn); > 80%
O=C(/C=C/c1ccc2c(c1)CCC2NCCc1cc(C(F)(F)F)cc(C(F)(F)F)c1)NO (stereo not drawn); > 80%
CCN(CC)c1ccc(C(=O)NC2CCc3cc(/C=C/C(=O)NCCCCCC(=O)NO)ccc32)cc1 (stereo not drawn); > 80%
Nc1cc(F)ccc1NC(=O)CCCCCCC(=O)NC1CCc2cc(Br)ccc21 (stereo not drawn); < 50%
COc1ccc2c(c1)CCCC2NC(=O)CCCCCCC(=O)Nc1ccc(F)cc1N (stereo not drawn); < 50%
O=C(CCCCCCC(=O)Nc1ccc2c(c1)CCCC2O)NO (stereo not drawn); > 80%
Nc1cc(F)ccc1NC(=O)CCCCCC(=O)Nc1ccc2c(c1)CC/C(=C\c1cc(C(F)(F)F)cc(C(F)(F)F)c1)C2=O; < 50%

Fill in the blank: the reported inhibition at 50 µM of CCN(CC)c1ccc(C(=O)NC2CCc3cc(/C=C/C(=O)Nc4ccc(F)cc4N)ccc32)cc1 (stereo not drawn) is ____.
< 50%

Consider the molecule shown here: O=C(/C=C/c1ccc2c(c1)CCC2OCc1cc(C(F)(F)F)cc(C(F)(F)F)c1)NO (stereo not drawn) What is its recorded inhibition at 50 µM?
> 80%
